- target_system: rat GHS-receptor (GHR-R) (Rattus norvegicus)
- Construct: A full-length cDNA for rat GHR-R was obtained by RT-PCR; expressed in transfected cells
- Sequence (O08725 whole entry): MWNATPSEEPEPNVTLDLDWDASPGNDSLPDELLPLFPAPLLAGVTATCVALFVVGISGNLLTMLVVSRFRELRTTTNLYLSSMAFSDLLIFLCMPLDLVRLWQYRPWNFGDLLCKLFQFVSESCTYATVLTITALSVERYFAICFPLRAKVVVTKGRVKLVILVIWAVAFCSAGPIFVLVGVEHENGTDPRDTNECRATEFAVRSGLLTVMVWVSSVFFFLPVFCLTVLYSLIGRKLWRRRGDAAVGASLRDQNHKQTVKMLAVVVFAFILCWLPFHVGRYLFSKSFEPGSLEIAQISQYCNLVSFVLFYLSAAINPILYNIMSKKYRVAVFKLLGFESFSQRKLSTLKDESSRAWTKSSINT
- measurement_notes: Ca-releasing activity (increase in intracellular calcium) in CHO-GHSR62 cells, FLIPR
- Assay type: cell-based
- test_parameters: CHO-GHSR62 cells (CHO cells expressing rat GHS receptor), FLIPR; read-out: Ca-releasing activity EC50
Square brackets hold non-standard residues; d marks the D form. Peptide text beside a SMILES is read from it. * marks the point of attachment. Octanoyl = CCCCCCCC(=O)*
endpoint: EC50 (nM)
Please reply with the bare figure in nM and do not write the unit itself.

compound	EC50 [nM]
CCCCCCCCOC[C@H](NC(=O)CCCCN)C(=O)N[C@@H](Cc1ccccc1)C(=O)N[C@@H](CC(C)C)C(=O)NCCN [Compound 85]	3.5

CCCCCCCC(=O)OC[C@H](NC(=O)[C@H](CO)NC(=O)CN)C(=O)N[C@@H](Cc1ccccc1)C(=O)N[C@@H](CCCCN)C(N)=O [Compound 38, [Lys^5]-Ghrelin (1-5)-amide] (H-GSS(Octanoyl)FK-NH2) yielded EC50 of 10

get_value(item= CCCCCCCC(=O)OC[C@H](NC(=O)[C@H](CO)NC(=O)CN)C(=O)N[C@H](Cc1ccccc1)C(=O)N[C@@H](CCCCN)C(N)=O [Compound 39, [^DPhe^4, Lys^5]-Ghrelin (1-5)-amide] (H-GSS(Octanoyl)[dF]K-NH2) , readout=EC50) returns 1700

The value of EC50 measured for the compound CCCCCCCCOC[C@H](NC(=O)CCCCN)C(=O)N[C@@H](Cc1ccccc1)C(=O)N[C@@H](CC(C)C)C(N)=O [Compound 81] turned out to be 11
